- TESTED ON: human O-GlcNAcase (Homo sapiens (Human))
- Sequence (O60502 whole entry): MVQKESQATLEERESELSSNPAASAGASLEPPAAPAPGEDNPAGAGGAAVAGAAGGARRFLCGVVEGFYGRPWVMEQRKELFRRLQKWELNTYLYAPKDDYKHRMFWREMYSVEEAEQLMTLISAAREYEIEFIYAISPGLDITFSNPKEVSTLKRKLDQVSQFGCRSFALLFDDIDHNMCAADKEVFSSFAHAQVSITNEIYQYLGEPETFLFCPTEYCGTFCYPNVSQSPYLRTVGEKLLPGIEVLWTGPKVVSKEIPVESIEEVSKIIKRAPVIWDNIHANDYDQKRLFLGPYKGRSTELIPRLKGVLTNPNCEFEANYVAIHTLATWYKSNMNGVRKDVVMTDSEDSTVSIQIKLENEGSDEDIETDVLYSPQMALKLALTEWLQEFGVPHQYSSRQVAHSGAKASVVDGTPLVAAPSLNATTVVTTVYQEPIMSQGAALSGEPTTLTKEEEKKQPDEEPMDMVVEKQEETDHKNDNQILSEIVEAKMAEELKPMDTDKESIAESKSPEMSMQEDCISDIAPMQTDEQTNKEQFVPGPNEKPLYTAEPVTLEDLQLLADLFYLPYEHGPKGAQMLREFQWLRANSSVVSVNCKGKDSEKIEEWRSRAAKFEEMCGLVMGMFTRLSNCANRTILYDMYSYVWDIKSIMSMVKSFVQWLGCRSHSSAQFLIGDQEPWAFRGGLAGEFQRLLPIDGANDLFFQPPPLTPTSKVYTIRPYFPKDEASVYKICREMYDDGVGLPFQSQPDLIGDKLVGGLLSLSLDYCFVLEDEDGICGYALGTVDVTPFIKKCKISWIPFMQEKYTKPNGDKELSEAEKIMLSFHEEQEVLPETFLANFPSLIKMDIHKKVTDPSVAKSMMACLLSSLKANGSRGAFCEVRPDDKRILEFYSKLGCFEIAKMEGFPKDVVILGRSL
- ASSAY DETAILS: biochemical
- Type: biochemical
- EXPERIMENTAL PARAMETERS: read-out: OGA KI
Would you mind telling me the reported pKi of each entry?
# log scale: pKi equals minus log10 of the concentration in mol/L

stdin: Return value of pKi for input "CN(C)C1=N[C@@H]2[C@@H](O)[C@H](O)[C@@H]([C@@H](OCc3ccc(C(F)(F)F)cc3)C(F)(F)F)O[C@@H]2S1" , no commentary.
stdout: 8.63

stdin: Return value of pKi for input "CN(C)C1=N[C@@H]2[C@@H](O)[C@H](O)[C@@H]([C@@H](OCc3ccc(Cc4ccccc4)cc3)C(F)(F)F)O[C@@H]2S1" , no commentary.
stdout: 8.71

stdin: Return value of pKi for input "CN(C)C1=N[C@@H]2[C@@H](O)[C@H](O)[C@@H]([C@H](OCc3ccccc3F)C(F)(F)F)O[C@@H]2S1" , no commentary.
stdout: 9.02

stdin: Return value of pKi for input "CNC1=N[C@@H]2[C@@H](O)[C@H](O)[C@@H]([C@@H](OCc3ccc(CCF)cc3)C(F)(F)F)O[C@@H]2S1" , no commentary.
stdout: 9.15

stdin: Return value of pKi for input "CN(C)C1=N[C@@H]2[C@@H](O)[C@H](O)[C@@H]([C@@H](OCc3ccccc3F)C(F)(F)F)O[C@@H]2S1" , no commentary.
stdout: 8.70

stdin: Return value of pKi for input "CN(C)C1=N[C@@H]2[C@@H](O)[C@H](O)[C@@H]([C@@H](OCc3ccc(Oc4ccccc4)cc3)C(F)(F)F)O[C@@H]2S1" , no commentary.
stdout: 8.95

stdin: Return value of pKi for input CN(C)C1=N[C@@H]2[C@@H](O)[C@H](O)[C@@H](C(OCc3cccc(F)c3)C(F)(F)F)O[C@@H]2S1 (stereo in doubt) , no commentary.
stdout: 8.88

stdin: Return value of pKi for input "CN(C)C1=N[C@@H]2[C@@H](O)[C@H](O)[C@@H]([C@@H](OCc3ccc(OCCF)cc3)C(F)(F)F)O[C@@H]2S1" , no commentary.
stdout: 9.19

stdin: Return value of pKi for input "CN(C)C1=N[C@@H]2[C@@H](O)[C@H](O)[C@@H]([C@@H](OCc3ccc(-c4ccccc4)cc3)C(F)(F)F)O[C@@H]2S1" , no commentary.
stdout: 8.52

* * *

- TESTED ON: O-GlcNAcase in rat PC-12 cells (Rattus norvegicus (Rat))
- Sequence (Q8VIJ5 whole entry): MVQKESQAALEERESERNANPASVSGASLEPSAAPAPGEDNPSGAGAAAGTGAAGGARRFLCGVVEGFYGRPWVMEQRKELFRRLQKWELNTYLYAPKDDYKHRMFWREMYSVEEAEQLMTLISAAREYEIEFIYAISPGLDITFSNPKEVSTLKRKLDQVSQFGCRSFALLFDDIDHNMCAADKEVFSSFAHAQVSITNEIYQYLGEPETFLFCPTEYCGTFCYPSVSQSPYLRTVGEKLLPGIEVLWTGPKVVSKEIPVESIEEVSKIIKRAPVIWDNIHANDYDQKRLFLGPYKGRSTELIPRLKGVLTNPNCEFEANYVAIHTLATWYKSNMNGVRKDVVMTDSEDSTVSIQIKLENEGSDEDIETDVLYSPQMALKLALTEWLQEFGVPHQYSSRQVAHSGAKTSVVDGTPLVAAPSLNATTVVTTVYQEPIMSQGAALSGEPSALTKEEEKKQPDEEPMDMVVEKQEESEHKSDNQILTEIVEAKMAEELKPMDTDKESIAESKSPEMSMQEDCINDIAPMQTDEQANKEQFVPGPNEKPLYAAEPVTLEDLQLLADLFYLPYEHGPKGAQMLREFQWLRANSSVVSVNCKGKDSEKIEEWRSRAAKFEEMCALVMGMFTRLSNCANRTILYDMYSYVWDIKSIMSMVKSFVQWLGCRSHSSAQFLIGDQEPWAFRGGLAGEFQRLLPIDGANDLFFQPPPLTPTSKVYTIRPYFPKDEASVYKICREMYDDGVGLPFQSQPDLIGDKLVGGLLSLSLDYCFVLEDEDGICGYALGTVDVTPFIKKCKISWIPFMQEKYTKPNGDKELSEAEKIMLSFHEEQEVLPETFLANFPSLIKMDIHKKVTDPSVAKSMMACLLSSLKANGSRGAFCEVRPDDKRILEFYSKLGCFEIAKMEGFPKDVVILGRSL
- ASSAY DETAILS: cell-based
- EXPERIMENTAL PARAMETERS: rat PC-12 cells, 24 hours treatment, increase in O-GlcNAcylated protein; read-out: Cell based ELISA EC50
RECORDED METRIC: pEC50
# log scale: pEC50 equals minus log10 of the concentration in mol/L

stdin: Return value of pEC50 for input "COc1ccc(CO[C@H]([C@H]2O[C@@H]3SC(N(C)C)=N[C@@H]3[C@@H](O)[C@@H]2O)C(F)(F)F)cc1C(F)(F)F" , no commentary.
stdout: 7.11

stdin: Return value of pEC50 for input "COc1ccc(CO[C@H]([C@H]2O[C@@H]3SC(N(C)C)=N[C@@H]3[C@@H](O)[C@@H]2O)C(F)(F)F)cc1" , no commentary.
stdout: 7.67

stdin: Return value of pEC50 for input "CNC1=N[C@@H]2[C@@H](O)[C@H](O)[C@@H]([C@@H](OCc3ccc(F)cc3)C(F)(F)F)O[C@@H]2S1" , no commentary.
stdout: 7.24

stdin: Return value of pEC50 for input "CN(C)C1=N[C@@H]2[C@@H](O)[C@H](O)[C@@H]([C@@H](OCc3ccccc3)C(F)(F)F)O[C@@H]2S1" , no commentary.
stdout: 7.44

stdin: Return value of pEC50 for input "CN(C)C1=N[C@@H]2[C@@H](O)[C@H](O)[C@@H]([C@@H](OCc3ccc(CCF)cc3)C(F)(F)F)O[C@@H]2S1" , no commentary.
stdout: 7.75

stdin: Return value of pEC50 for input "CN(C)C1=N[C@@H]2[C@@H](O)[C@H](O)[C@@H]([C@@H](OCCCCCF)C(F)(F)F)O[C@@H]2S1" , no commentary.
stdout: 7.65

stdin: Return value of pEC50 for input "CN(C)C1=N[C@@H]2[C@@H](O)[C@H](O)[C@@H]([C@@H](OCc3ccc(CCCF)cc3)C(F)(F)F)O[C@@H]2S1" , no commentary.
stdout: 7.51

stdin: Return value of pEC50 for input CN(C)C1=N[C@@H]2[C@@H](O)[C@H](O)[C@@H](C(OCc3cccc(F)c3)C(F)(F)F)O[C@@H]2S1 (stereo in doubt) , no commentary.
stdout: 8.07

stdin: Return value of pEC50 for input "CCCO[C@H]([C@H]1O[C@@H]2SC(NC)=N[C@@H]2[C@@H](O)[C@@H]1O)C(F)(F)F" , no commentary.
stdout: 6.76

stdin: Return value of pEC50 for input "CN(C)C1=N[C@@H]2[C@@H](O)[C@H](O)[C@@H]([C@@H](OCc3ccc(F)cc3)C(F)(F)F)O[C@@H]2S1" , no commentary.
stdout: 7.56

stdin: Return value of pEC50 for input "CN(C)C1=N[C@@H]2[C@@H](O)[C@H](O)[C@@H]([C@@H](OCc3cccnc3)C(F)(F)F)O[C@@H]2S1" , no commentary.
stdout: 6.92

stdin: Return value of pEC50 for input "CN(C)C1=N[C@@H]2[C@@H](O)[C@H](O)[C@@H]([C@@H](OCCC3CCCCC3)C(F)(F)F)O[C@@H]2S1" , no commentary.
stdout: 7.33

* * *

Would you mind telling me the reported EC50 of each entry?
- TESTED ON: O-GlcNAcase in rat PC-12 cells (Rattus norvegicus (Rat))
- ASSAY DETAILS: cell-based
Report only the number, with the unit nM understood.

stdin: Return value of EC50 for input CN(C)C1=N[C@@H]2[C@@H](O)[C@H](O)[C@@H]([C@@H](OCc3ccc(Oc4ccccc4)cc3)C(F)(F)F)O[C@@H]2S1 [Example 57] , no commentary.
stdout: 62.1

stdin: Return value of EC50 for input CN(C)C1=N[C@@H]2[C@@H](O)[C@H](O)[C@@H]([C@@H](OCc3ccc(Cc4ccccc4)cc3)C(F)(F)F)O[C@@H]2S1 [Example 45] , no commentary.
stdout: 128

stdin: Return value of EC50 for input CN(C)C1=N[C@@H]2[C@@H](O)[C@H](O)[C@@H]([C@@H](OCc3ccc(OCCF)cc3)C(F)(F)F)O[C@@H]2S1 [Example 55] , no commentary.
stdout: 79.5

* * *

- ASSAY DETAILS: Assay for determination of apparent permeability (Papp), bi-directional transport
- EXPERIMENTAL PARAMETERS: pig, LLC-PK1
Binary call on Papp at 3 h, 1 μM: fulfilled from 30 ×10⁻⁶ cm/s upward, not fulfilled beneath that.

stdin: Record "CN(C)C1=N[C@@H]2[C@@H](O)[C@H](O)[C@@H]([C@@H](OCC3CCCCC3)C(F)(F)F)O[C@@H]2S1" ; criterion: Papp at 3 h, 1 μM no lower than 30 ×10⁻⁶ cm/s. Met?
stdout: fulfilled

stdin: Record "COc1c(C)cc(CO[C@H]([C@H]2O[C@@H]3SC(N(C)C)=N[C@@H]3[C@@H](O)[C@@H]2O)C(F)(F)F)cc1C" ; criterion: Papp at 3 h, 1 μM no lower than 30 ×10⁻⁶ cm/s. Met?
stdout: not fulfilled

stdin: Record "CCCCCO[C@H]([C@H]1O[C@@H]2SC(N(C)C)=N[C@@H]2[C@@H](O)[C@@H]1O)C(F)(F)F" ; criterion: Papp at 3 h, 1 μM no lower than 30 ×10⁻⁶ cm/s. Met?
stdout: fulfilled

stdin: Record "COc1ccccc1CO[C@H]([C@H]1O[C@@H]2SC(N(C)C)=N[C@@H]2[C@@H](O)[C@@H]1O)C(F)(F)F" ; criterion: Papp at 3 h, 1 μM no lower than 30 ×10⁻⁶ cm/s. Met?
stdout: fulfilled

stdin: Record "CN(C)C1=N[C@@H]2[C@@H](O)[C@H](O)[C@@H]([C@@H](OCCCCCF)C(F)(F)F)O[C@@H]2S1" ; criterion: Papp at 3 h, 1 μM no lower than 30 ×10⁻⁶ cm/s. Met?
stdout: fulfilled

* * *

Would you mind telling me the reported EC50 of each entry?
- TESTED ON: O-GlcNAcase in rat PC-12 cells (Rattus norvegicus (Rat))
- ASSAY DETAILS: cell-based
Hi, when you answer, please include the unit after the number. Thanks!

stdin: Return value of EC50 for input "CNC1=N[C@@H]2[C@@H](O)[C@H](O)[C@@H]([C@@H](OCc3ccc(CCF)cc3)C(F)(F)F)O[C@@H]2S1" , no commentary.
stdout: 46.4 nM

stdin: Return value of EC50 for input "CN(C)C1=N[C@@H]2[C@@H](O)[C@H](O)[C@@H]([C@@H](OCc3ccccc3F)C(F)(F)F)O[C@@H]2S1" , no commentary.
stdout: 7.73 nM

stdin: Return value of EC50 for input "CN(C)C1=N[C@@H]2[C@@H](O)[C@H](O)[C@@H]([C@@H](OCc3ccc(C(F)(F)F)cc3)C(F)(F)F)O[C@@H]2S1" , no commentary.
stdout: 13.5 nM
